target: h5-HT2A (Homo sapiens, UniProt P28223); test: GTP-γ-[35S] functional assay (SPA), AV12 cells; conditions: GTPgs functional assay, human recombinant cell line
Sequence (P28223 whole entry): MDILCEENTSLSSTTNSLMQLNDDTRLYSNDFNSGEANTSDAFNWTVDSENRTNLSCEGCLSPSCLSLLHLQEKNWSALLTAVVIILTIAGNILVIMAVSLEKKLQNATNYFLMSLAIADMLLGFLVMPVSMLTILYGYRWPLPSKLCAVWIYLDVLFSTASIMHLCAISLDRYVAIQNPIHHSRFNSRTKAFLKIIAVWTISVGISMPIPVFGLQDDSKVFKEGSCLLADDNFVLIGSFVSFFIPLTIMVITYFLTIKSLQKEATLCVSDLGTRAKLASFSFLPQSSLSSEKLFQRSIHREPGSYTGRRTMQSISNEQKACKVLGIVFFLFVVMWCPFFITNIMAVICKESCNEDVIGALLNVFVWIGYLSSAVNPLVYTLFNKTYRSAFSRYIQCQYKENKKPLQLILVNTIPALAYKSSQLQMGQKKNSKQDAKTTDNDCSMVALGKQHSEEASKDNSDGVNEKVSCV
measured_endpoint: pEC50
// scale note: pEC50 = -log10(conc_M); give the bare number

Please look at C[C@H]1CN(c2ccc(C(F)(F)F)c3ccoc23)CCN1 [CPD 1] and tell me its recorded pEC50 on h5-HT2A (Homo sapiens, UniProt P28223).
6.57

Please look at C[C@H](N)Cn1ccc2cc(F)c(Cl)cc21 [Ro 60-0175] and tell me its recorded pEC50 on h5-HT2A (Homo sapiens, UniProt P28223).
6.89
